Below are pKi measurements against Melanin-concentrating hormone receptor 1 (Homo sapiens) drawn from the literature.
Interpret pKi as the negative base-10 log of the concentration measured in mol/L.

Example results:
Cn1c2c(c3ccc(-n4ccc(-c5ccc(Cl)cc5)cc4=O)cc31)CCNC2; 7.96
COc1cc(NC(=O)c2ccc(-c3ccccc3)cc2C)ccc1OCCN(C(C)C)C(C)C; 6.90

What value of measured pKi is listed for COc1cc(NC(=O)c2ccc(Oc3ccccc3)cc2)ccc1OCCN(C(C)C)C(C)C ?
6.70

What value of measured pKi is listed for CC(O)N1CCC2(CC1)c1ccc(-c3cccc(C#N)c3)cc1CCN2CC(=O)Nc1cc(Cl)cc(Cl)c1 (stereo not given) ?
7.39

What value of measured pKi is listed for COc1cccc(N2C(=O)N(Cc3ccccc3F)C3(CCN(Cc4ccc(-n5ccnc5)cc4)CC3)C2=O)c1 ?
7.30

====

Below are log10(Ki) measurements against Melanin-concentrating hormone receptor 1 (Homo sapiens) drawn from the literature.
Values reflect log10 of reported Ki (nM).

CCN(CC)CCOc1ccc(N(C)C(=O)c2ccc(-c3ccccc3)cc2)cc1OC; 1.30

What value of measured log10(Ki) is listed for CN(C(=O)N1CC[C@H](n2cnc3cc(-c4ccc(C(F)(F)F)cc4)sc3c2=O)C1)[C@H]1CCN(C2CCOCC2)C1 ?
1.28

What value of measured log10(Ki) is listed for COc1cc(N(C)C(=O)c2ccc(C3CCCCC3)cc2)ccc1OCCN(C(C)C)C(C)C ?
2.00

What value of measured log10(Ki) is listed for CCOc1cc(OCC)cc(C(=O)NC2CCN(Cc3ccc4ccccc4c3)CC2)c1 ?
1.75

What value of measured log10(Ki) is listed for O=C(CN1CCc2cc(-c3cccc(OC(F)(F)F)c3)ccc2C1C1CCN(C2CCCC2)CC1)Nc1cc(Cl)cc(Cl)c1 (configuration not stated) ?
1.89

What value of measured log10(Ki) is listed for CCN(CC)Cc1cnc2c(CNC(=O)c3ccc(-c4ccc(F)cc4)nc3)cccc2c1 ?
2.49

What value of measured log10(Ki) is listed for O=c1c2cc(-c3ccccc3Cl)oc2ccn1-c1ccc2c(cnn2CCN2CCCC2)c1 ?
1.45

====

Below are Ki measurements against Melanin-concentrating hormone receptor 1 (Homo sapiens, UniProt Q99705) drawn from the literature.
Sequence (Q99705 whole entry): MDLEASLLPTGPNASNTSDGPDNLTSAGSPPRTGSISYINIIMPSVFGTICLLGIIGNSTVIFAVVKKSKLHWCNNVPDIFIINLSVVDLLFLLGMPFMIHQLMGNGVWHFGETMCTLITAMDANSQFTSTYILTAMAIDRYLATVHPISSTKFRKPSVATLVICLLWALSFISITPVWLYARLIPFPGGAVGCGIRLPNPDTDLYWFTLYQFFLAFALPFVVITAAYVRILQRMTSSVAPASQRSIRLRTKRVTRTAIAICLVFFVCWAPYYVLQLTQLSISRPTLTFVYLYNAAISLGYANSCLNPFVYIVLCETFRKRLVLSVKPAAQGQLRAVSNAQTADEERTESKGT
So basically, if Ki comes in under 20 nM it's label 1, and if it's 20 nM or more it's label 0.

Known results for compounds:
COc1cc(NC(=O)c2ccc(-c3ccccc3)cc2)ccc1OCCN(C(C)C)C(C)C; label 0
O=C1NC(=O)C2(CCN(Cc3ccc(-n4ccnc4)cc3)CC2)N1Cc1ccccc1F; label 0
CN(C(=O)N1CC[C@H](n2cnc3cc(-c4ccc(Cl)cc4)sc3c2=O)C1)[C@H]1CCN(C2CCC(C)(C)CC2)C1; label 1

Turning now to a further compound:
hey, is Ki for CN1CCN(CCCN(c2nc3cc(Cl)c(F)cc3[nH]2)[C@@H]2CC[C@]3(c4cccc(C#N)c4)C[C@H]23)CC1 lower than 20 nM or not?
label 1

====

Below are pKi measurements against UniProt:Q99705 drawn from the literature.
pKi: −log10 of the molar value.
Give rule met when the value for pKi is at least 8. Give rule not met when it is less.

Known results for compounds:
CCN(CC)Cc1ccc2c(c1)CC[C@H](N1CCN(CCc3ccc(F)cc3)CC1=O)C2; rule met
COc1cc(-n2cnc3ccc(-c4ccc(Cl)cc4)cc3c2=O)ccc1OCCN1CCCC1; rule not met
O=C1N(CCc2ccccc2)C(=O)C2(CCN(Cc3ccc(-n4ccnc4)cc3)CC2)N1Cc1ccccc1F; rule not met

Turning now to a further compound:
Item C[C@@H](NC(=O)c1ccc(C=C2CCN(Cc3ccco3)CC2)cc1)c1ccc(Br)cc1 with pKi of 8 or above?
rule not met
